Give TGI for every item shown.
- Tested on: OVCAR-5 ovarian
- protocol.description: NCI tumour cell line growth inhibition, 48 h

// worked examples, TGI included
smiles_str=C/C(=N\NC(=O)c1ccncc1)c1ccccc1F observed_result="> 10 µM"
smiles_str=CCC[CH2][Sn]([CH2]CCC)([CH2]CCC)[O]C(=O)c1ccc(Cl)cc1Cl observed_result="0.315 µM"

Next item in the queue.
Input: Fill in the blank: the reported TGI of Cc1cc(NS(=O)(=O)c2ccc(NC(=O)c3ccc(Cl)c4c(Nc5ccc(S(=O)(=O)N=C(N)N)cc5)c5ccccc5nc34)cc2)no1 is ____.
Output: > 100 µM
